# target system: HaloTag-ING2 PHD (mouse Ing2 200-280)
# procedure text: peptide microarray binding signal (635 nm), min-max normalized on array (fraction of array maximum); higher = stronger binding
# measurement setup: peptide region: Unmod H2A variant; binder concentration: 10 nM
For each of the binders below, state its peptide microarray binding signal.
Numbers only.

INSERT INTO assay_data (binder, value_measured) VALUES
  ('GNAARDNKKTRII [Unmod H2A variant G N A A R D N K K T R I I]', 0.00322),
  ('ILELAGNASRDNK [Unmod H2A variant I L E L A G N A S R D N K]', 0.00734);

Please look at the following binder next.
Prompt line: Can you share its peptide microarray binding signal? I mean this binder: RNDEELNKLLGRV [Unmod H2A variant R N D E E L N K L L G R V]
Response line: 0.00269
